These entries and their values trace back to patent US10544143B2.

target: human TLR7 (Homo sapiens (Human)); test: TLR7 inhibition reporter assay (HEK-Blue SEAP); type: cell-based; settings: HEK-Blue human TLR7 cells, gardiquimod 7.5 μM
Sequence (Q9NYK1 27-1049): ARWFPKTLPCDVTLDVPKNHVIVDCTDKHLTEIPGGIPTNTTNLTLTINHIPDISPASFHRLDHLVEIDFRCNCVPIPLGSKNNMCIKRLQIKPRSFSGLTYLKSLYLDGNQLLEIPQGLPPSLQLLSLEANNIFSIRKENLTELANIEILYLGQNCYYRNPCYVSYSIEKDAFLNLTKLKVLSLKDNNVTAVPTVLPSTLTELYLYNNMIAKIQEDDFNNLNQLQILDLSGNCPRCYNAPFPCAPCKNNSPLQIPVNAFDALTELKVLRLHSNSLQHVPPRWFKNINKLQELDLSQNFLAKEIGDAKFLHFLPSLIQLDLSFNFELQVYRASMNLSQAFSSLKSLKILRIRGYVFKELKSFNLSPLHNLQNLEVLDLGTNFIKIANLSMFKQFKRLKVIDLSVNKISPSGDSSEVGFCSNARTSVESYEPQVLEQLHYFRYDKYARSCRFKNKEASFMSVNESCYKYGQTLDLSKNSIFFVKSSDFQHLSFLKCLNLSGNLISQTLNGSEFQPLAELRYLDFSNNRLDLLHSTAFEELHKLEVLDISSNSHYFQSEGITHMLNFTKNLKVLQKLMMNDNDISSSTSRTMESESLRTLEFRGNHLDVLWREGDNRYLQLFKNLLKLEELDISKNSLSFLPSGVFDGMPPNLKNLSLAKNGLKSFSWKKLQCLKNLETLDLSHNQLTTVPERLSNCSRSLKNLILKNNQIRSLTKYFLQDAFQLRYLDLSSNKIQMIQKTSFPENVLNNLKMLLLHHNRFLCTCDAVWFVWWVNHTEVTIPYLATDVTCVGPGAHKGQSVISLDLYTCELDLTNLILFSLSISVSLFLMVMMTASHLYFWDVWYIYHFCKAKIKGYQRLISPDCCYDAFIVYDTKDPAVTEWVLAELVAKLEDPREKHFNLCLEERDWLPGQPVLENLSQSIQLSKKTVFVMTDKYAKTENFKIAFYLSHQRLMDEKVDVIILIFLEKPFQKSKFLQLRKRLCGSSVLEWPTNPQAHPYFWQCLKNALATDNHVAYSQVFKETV
pIC50: −log10 of the molar value.
Experimental endpoint: pIC50

Completed entries (count: 5):
Compound: CCC[C@H]1CNCCN1c1ccc2[nH]c(-c3cn4ncnc4c(C)c3C)c(C(C)C)c2n1
Quantitative readout: 9.20
--
Compound: Cc1c(-c2[nH]c3ccc(C4CCC(O)(CN)CC4)nc3c2C(C)C)cn2ncnc2c1C (stereo not shown)
Quantitative readout: 8.77
--
Compound: CNCCC(=O)N1C[C@H](C)N(c2ccc3[nH]c(-c4cn5ncnc5c(C)c4C)c(C(C)C)c3n2)C[C@H]1C
Quantitative readout: 5.85
--
Compound: Cc1c(-c2[nH]c3ccc(N4CCN(C(=O)CN)CC4)nc3c2C(C)C)cn2ncnc2c1C
Quantitative readout: 8.40
--
Compound: Cc1c(-c2[nH]c3ccc(N4C[C@@H](C)N(CC(N)=O)C[C@H]4C)nc3c2C(C)C)cn2ncnc2c1C [Example 799]
Quantitative readout: 8.30

A. CCN(C)CC(=O)N1CCN(c2ccc3[nH]c(-c4cn5ncnc5c(C)c4C)c(C(C)C)c3n2)[C@@H](C)C1
B. Cc1c(-c2[nH]c3ccc(C4CCC(N5CCC6(CCOC6)C5)CC4)nc3c2C(C)C)cn2ncnc2c1C (stereo not shown) [Example 1059]
C. Cc1c(-c2[nH]c3ccc(C4CCC(NC(C)(C)C)CC4)nc3c2C(C)C)cn2ncnc2c1C (stereo not shown) [Example 1054]
D. COCCN1CC2(C1)CN(c1ccc3[nH]c(-c4cn5ncnc5c(C)c4C)c(C(C)C)c3n1)C2
E. Cc1c(-c2[nH]c3ccc(NCCN)nc3c2C(C)C)cn2ncnc2c1C
Query: Please list the entries, largest pIC50 first. # output: labels, in the requested order
Reply: A, B, C, D, E
(A: 9.18, B: 8.80, C: 8.27, D: 7.96, E: 7.15)
